B1: Azoarcus group I ribozyme (parent)
chain: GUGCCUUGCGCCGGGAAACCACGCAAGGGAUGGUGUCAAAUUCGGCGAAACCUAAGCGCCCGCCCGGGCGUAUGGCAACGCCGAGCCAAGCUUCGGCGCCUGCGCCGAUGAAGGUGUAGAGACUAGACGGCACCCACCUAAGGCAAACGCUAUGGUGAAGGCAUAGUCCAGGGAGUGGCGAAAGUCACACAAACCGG

- Variants of: B1
- protocol.description: reverse-splicing fitness (ratio to wild type); higher = more active; in vitro selection; Mg2+ level not given
value.type: reverse-splicing fitness
Reply with just the number.

Query: Param item = C82G A120U C150G C169G U176A ; retrieve measured reverse-splicing fitness.
Result: 0.00454

Query: Need reverse-splicing fitness of C82U A120U C150U C169G U176G , thanks.
Result: 0.00155

Query: Which measured reverse-splicing fitness value corresponds to C82G A111U A120U C150G C169U U176G ?
Result: 0.00257

Query: Reported reverse-splicing fitness, variant C82A A120G A145C C150U C169A U176G : ____
Result: 0.00425

Next:
Query: Entry under review: C82A A111U A120U A145U C150A . Reported reverse-splicing fitness?
Result: 0.00619

Query: # lookup: reverse-splicing fitness of C82G A111U A120G A145G C150A U176C
Result: 0.0219

Query: Entry C82G A111U A120U A145G C150G C169G : reported reverse-splicing fitness = ?
Result: 0.00714

Query: reverse-splicing fitness lookup needed for C82U A111C A120G A145G C150U U176A , thanks.
Result: 0.00886

Query: Consider the variant shown here: C82G A111G A120C A145C C169U U176C What is its recorded reverse-splicing fitness?
Result: 0.01

Query: Quick one: reverse-splicing fitness of C82A A111U C169A U176A ?
Result: 0.0172

Query: Data request, read-out reverse-splicing fitness, for C82G A120C C150U U176A
Result: 0.0429

Query: Give the measured reverse-splicing fitness of C82G A111U A145U C150U C169A U176A .
Result: 0.0143

Query: What reverse-splicing fitness value was documented for this variant, C82A A111G A120G A145C C169U ?
Result: 0.0103

Query: Recorded reverse-splicing fitness for C82A A111G A120U A145C C150A U176C , please?
Result: 0.00355

Query: Requested read-out: reverse-splicing fitness. Entry: C82G A111C A120C C150G U176G
Result: 0.00427
